All figures here come from ChEMBL document CHEMBL1817629.

experiment: Metabolic stability in rat plasma assessed as compound remaining at 50 ug/mL after 30 mins by LC-MS/MS analysis; type: ADME, cell-free; settings: read-out: Stability
measurement label: remaining at 0.5 h, 50 ug/mL (%)

CCCc1nc(C(C)(C)O)c(C(=O)OCc2c[nH]c(=O)[nH]c2=O)n1Cc1ccc(-c2ccccc2-c2nnn[nH]2)cc1; 96.3
CCCc1nc(C(C)(C)O)c(C(=O)OCOC(=O)C23CC4CC(CC(C4)C2)C3)n1Cc1ccc(-c2ccccc2-c2nnn[nH]2)cc1; 79.8
CCCc1nc(C(C)(C)O)c(C(=O)OC(C)OC(=O)c2ccccc2)n1Cc1ccc(-c2ccccc2-c2nnn[nH]2)cc1 (centres undefined); 85.8
CCCCCCCCOC(=O)c1c(C(C)(C)O)nc(CCC)n1Cc1ccc(-c2ccccc2-c2nnn[nH]2)cc1; 90.2

---

assay: Stability of the compound in rat liver microsomes assessed as half life at 1 uM by LC/MS/MS analysis; format: ADME, Microsome
measurement label: half-life at 1 µM (min)

CCCc1nc(C(C)(C)O)c(C(=O)OC(C)OC(=O)C2CCCCC2)n1Cc1ccc(-c2ccccc2-c2nnn[nH]2)cc1 (stereo not drawn); 2.7

(1) CCCc1nc(C(C)(C)O)c(C(=O)OCOC(=O)C23CC4CC(CC(C4)C2)C3)n1Cc1ccc(-c2ccccc2-c2nnn[nH]2)cc1
(2) CCCc1nc(C(C)(C)O)c(C(=O)OCc2oc(=O)oc2C)n1Cc1ccc(-c2ccccc2-c2nnn[nH]2)cc1
Req: I'd appreciate it if you could identify which of 1 and 2 has the greater half-life at 1 µM. Refer to your chosen item by its label in the answer.
Resp: 2
(2: 4.95 min, 1: 2.28 min)

---

experiment: Stability of the compound in rat plasma assessed as half life at 1 uM by LC/MS/MS analysis; assay type: ADME, cell-free
measurement label: half-life at 1 µM (min)

CCCc1nc(C(C)(C)O)c(C(=O)OCOC(=O)C23CC4CC(CC(C4)C2)C3)n1Cc1ccc(-c2ccccc2-c2nnn[nH]2)cc1; 10

(a) CCCc1nc(C(C)(C)O)c(C(=O)OCc2oc(=O)oc2C)n1Cc1ccc(-c2ccccc2-c2nnn[nH]2)cc1
(b) CCCc1nc(C(C)(C)O)c(C(=O)OC(C)OC(=O)C2CCCCC2)n1Cc1ccc(-c2ccccc2-c2nnn[nH]2)cc1 (stereo not drawn)
Req: Input pair: a , b . Output: entry with lower half-life at 1 µM. Refer to your chosen item by its label in the answer.
Resp: a
